All values here come from patent US20220117966A1.

# Assay text: Pharmacokinetics (PK) of saracatinib in the bleomycin model
# Format: in vivo
# Reported conditions: mouse; 10 mg/kg BID oral gavage, mice, Day 21, not dosed before blood draw; read-out: Cmin +/− SD
Measurement label: concentration at 21 day (nM)
Numbers only; they are read as nM.

Q: So what does the record say about concentration at 21 day for CN1CCN(CCOc2cc(OC3CCOCC3)c3c(Nc4c(Cl)ccc5c4OCO5)ncnc3c2)CC1 ?
A: 31.8

----------
# System: TGFβ-stimulated NHLF (normal human lung fibroblasts)
# Assay text: cells
# Format: cell-based
# Reported conditions: Homo sapiens, Fibroblast, 24 h, read-out: Mean IC50 ACTA2 mRNA
Please provide measured IC50 for the entries that follow.
Numbers only; they are read as nM.

Q: So what does the record say about IC50 for COC(=O)c1ccc2c(c1)NC(=O)/C2=C(\Nc1ccc(N(C)C(=O)CN2CCN(C)CC2)cc1)c1ccccc1 ?
A: 1750

Q: So what does the record say about IC50 for CN1CCN(CCOc2cc(OC3CCOCC3)c3c(Nc4c(Cl)ccc5c4OCO5)ncnc3c2)CC1 ?
A: 186

----------
# Assay text: Pharmacokinetics (PK) of saracatinib in the bleomycin model
# Format: in vivo
# Reported conditions: mouse; 3 mg/kg BID oral gavage, mice, Day 21, not dosed before blood draw; read-out: Cmin +/− SD
Measurement label: concentration at 21 day (nM)
Numbers only; they are read as nM.

Q: So what does the record say about concentration at 21 day for CN1CCN(CCOc2cc(OC3CCOCC3)c3c(Nc4c(Cl)ccc5c4OCO5)ncnc3c2)CC1 ?
A: 8.41

----------
# Assay text: Pharmacokinetics (PK) of saracatinib in the bleomycin model
# Assay type: in vivo
# Reported conditions: mouse; 1 mg/kg BID oral gavage, mice, Day 21, not dosed before blood draw; read-out: Cmin +/− SD
Measurement label: concentration at 21 day
Number first, unit second: that is the form wanted.

Q: So what does the record say about concentration at 21 day for CN1CCN(CCOc2cc(OC3CCOCC3)c3c(Nc4c(Cl)ccc5c4OCO5)ncnc3c2)CC1 ?
A: 2.52 nM
